target: LsrK (ecLsrK) (Escherichia coli); test: biochemical
MEASURED ATTRIBUTE: Kd (µM)
Enter your answer as a number in µM; do not include the unit.

Value lookup for Kd; key = Nc1ncnc2c1ncn2[C@@H]1O[C@H](COP(=O)(O)OP(=O)(O)OP(=O)(O)O)[C@@H](O)[C@H]1O 5.07

---

molecular target: LsrK (ecLsrK) (Escherichia coli, UniProt P77432); experiment: tryptophan fluorescence quenching, modified Stern-Volmer; assay type: binding; design: 530 residues; settings: 0.1 uM LsrK, PBS pH 7.4, 25 °C
Sequence (P77432 whole entry): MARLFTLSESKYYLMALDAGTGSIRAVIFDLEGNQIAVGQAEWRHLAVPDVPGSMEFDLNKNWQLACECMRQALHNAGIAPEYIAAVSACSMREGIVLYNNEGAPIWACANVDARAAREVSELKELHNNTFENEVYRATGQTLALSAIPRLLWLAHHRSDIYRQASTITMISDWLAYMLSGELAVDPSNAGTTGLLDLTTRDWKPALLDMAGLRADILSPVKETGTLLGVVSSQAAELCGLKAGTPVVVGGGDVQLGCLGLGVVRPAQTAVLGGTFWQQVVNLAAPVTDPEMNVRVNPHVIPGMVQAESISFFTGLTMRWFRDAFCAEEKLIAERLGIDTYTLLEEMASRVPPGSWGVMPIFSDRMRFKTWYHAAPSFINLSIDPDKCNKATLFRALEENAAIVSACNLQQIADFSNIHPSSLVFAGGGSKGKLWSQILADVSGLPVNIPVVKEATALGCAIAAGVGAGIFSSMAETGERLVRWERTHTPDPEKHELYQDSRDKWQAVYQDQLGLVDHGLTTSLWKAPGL
MEASURED ATTRIBUTE: Kd (nM)
Enter your answer as a number in nM; do not include the unit.

Value lookup for Kd; key = COC(=O)[C@@H]1OC(=O)C[C@@]1(O)C(=O)OC 78

Value lookup for Kd; key = COc1cc(C)cc2cc3c(c(O)c12)C(=O)CC[C@H]3O [(R)-ASME] 190

Value lookup for Kd; key = O=CC1=C(O)C=CCO1 [Hib-carbaldehyde, 5-hydroxy-2H-pyran-6-carbaldehyde] 140

Value lookup for Kd; key = Cc1cc(O)c(C=O)c2c1C(=O)Oc1c(COC(=O)/C=C/C(=O)O)c(O)c(C(=O)O)c(C)c1O2 217
